Origin of the recorded values: patent US20220363662A1

Item-by-item account of IC50
Test system: HCT116
assay-notes: Cell viability assay (resazurin) in HCT116
Format: cell-based
conditions-used: Homo sapiens, HCT-116; 96 hr exposure
parameter: IC50

[[record]]
compound = "CN(C)C(=O)c1ccc(N[C@H]2CCN(C3CCN(C(=O)[C@](O)(c4ccccc4)C(F)(F)F)CC3)C2)cc1Cl"
test_target = "HCT116"
result = "> 30 µM"

[[record]]
compound = "CC(C)C(O)(C(=O)N1CCC(N2CC(Nc3ccc(C(=O)N(C)C)c(Cl)c3)C2)CC1)C(F)(F)F (stereo not shown)"
test_target = "HCT116"
result = "> 30 µM"

[[record]]
compound = "CC(C)C(O)(C(=O)N1CCC(N2CC[C@H](Nc3ccc(C(=O)N(C)C)c(Cl)c3)C2)CC1)C(F)(F)F (stereo partly shown)"
test_target = "HCT116"
result = "> 30 µM"

[[record]]
compound = "CC(C)[C@](O)(C(=O)N1CCC(N2CC(Nc3ccc(C(=O)N(C)C)c(Cl)c3)C2)CC1)C(F)(F)F (single isomer, unassigned)"
test_target = "HCT116"
result = "> 30 µM"

[[record]]
compound = "CN(C)C(=O)c1ccc(N2CCC(N3CC4(CN(C(=O)[C@](O)(c5ccccc5)C(F)(F)F)C4)C3)CC2)cc1Cl"
test_target = "HCT116"
result = "> 30 µM"

[[record]]
compound = "CC(C)[C@@](O)(C(=O)N1CCC(N2CC(Nc3ccc(C(=O)N(C)C)c(Cl)c3)C2)CC1)C(F)(F)F (single isomer, unassigned)"
test_target = "HCT116"
result = "> 30 µM"

[[record]]
compound = "CN(C)C(=O)c1ccc(NC2CN(C3CCN(C(=O)C(C)(C)c4ccccc4)CC3)C2)cc1Cl"
test_target = "HCT116"
result = "> 30 µM"

[[record]]
compound = "CN(C)C(=O)c1ccc(NC2CN(C3CCN(C(=O)C4(c5ccc(F)cc5)CCC4)CC3)C2)cc1Cl"
test_target = "HCT116"
result = "17.8 µM"

[[record]]
compound = "CC(C)C(O)(C(=O)N1CCC2(CC1)CN(C1CCN(c3ccc(C(=O)N(C)C)c(Cl)c3)CC1)C2)C(F)(F)F (stereo not shown)"
test_target = "HCT116"
result = "> 30 µM"

[[record]]
compound = "CN(C)C(=O)c1ccc(NC2CN(C3CCN(C(=O)C(F)(F)c4ccccc4Cl)CC3)C2)cc1Cl"
test_target = "HCT116"
result = "> 30 µM"

[[record]]
compound = "CN(C)C(=O)c1ccc(-c2nnc(N3CC4(CCN(S(=O)(=O)c5ccccc5Cl)CC4)C3)s2)cc1Cl"
test_target = "HCT116"
result = "4.46 µM"

[[record]]
compound = "CN(C)C(=O)c1ccc(NC2CCN(C3CCN(C(=O)[C@](O)(c4ccccc4)C(F)(F)F)CC3)CC2)cc1Cl"
test_target = "HCT116"
result = "> 30 µM"

[[record]]
compound = "CN(C)C(=O)c1ccc(NC2CN(C3CCN(C(=O)C4(c5cccc(F)c5)CCC4)CC3)C2)cc1Cl"
test_target = "HCT116"
result = "15.1 µM"

[[record]]
compound = "CN(C)C(=O)c1ccc(NC2CN(C3CCN(C(=O)C4(c5c(F)cccc5Cl)CCCC4)CC3)C2)cc1Cl"
test_target = "HCT116"
result = "12.4 µM"

[[record]]
compound = "CN(C)C(=O)c1ccc(NC2CN(C3CCN(C(=O)C4(c5ccccc5)CCC4)CC3)C2)cc1Cl"
test_target = "HCT116"
result = "12.2 µM"

[[record]]
compound = "CN(C)C(=O)c1ccc(N[C@H]2CCCN(C3CCN(C(=O)[C@](O)(c4ccccc4)C(F)(F)F)CC3)C2)cc1Cl"
test_target = "HCT116"
result = "> 30 µM"

